These measurements were taken from paper PMC9861386.

# reported GI50; entries follow
tested on: HeLa cervix cancer cells; assay: MTT cell viability, 72 h, dark or 458 nm irradiation; format: cell-based, human; settings: dark, 72 h, MTT; read-out: GI50 HeLa Dark
readoutType: GI50 (nM)

{"columns": ["smilesData", "systemName", "numericResult"],
 "data": [
  ["CSc1ccc(-[n+]2ccn3[c]2[Ir-3]24([c]5ccccc5-c5cccc[n+]52)([c]2ccccc2-c2cccc[n+]24)[c]2n(cc[n+]2-c2ccc(SC)cc2)C3)cc1.F[P-](F)(F)(F)(F)F", "HeLa cervix cancer cells", 1540],
  ["CC(C)[n+]1ccn2[c]1[Ir-3]13([c]4ccccc4-c4cccc[n+]41)([c]1ccccc1-c1cccc[n+]13)[c]1n(cc[n+]1C(C)C)C2.F[P-](F)(F)(F)(F)F", "HeLa cervix cancer cells", 1290],
  ["F[P-](F)(F)(F)(F)F.c1ccc(C[n+]2ccn3[c]2[Ir-3]24([c]5ccccc5-c5cccc[n+]52)([c]2ccccc2-c2cccc[n+]24)[c]2n(cc[n+]2Cc2ccccc2)C3)cc1", "HeLa cervix cancer cells", 494],
  ["CC(C)C[n+]1ccn2[c]1[Ir-3]13([c]4ccccc4-c4cccc[n+]41)([c]1ccccc1-c1cccc[n+]13)[c]1n(cc[n+]1CC(C)C)C2.F[P-](F)(F)(F)(F)F", "HeLa cervix cancer cells", 625]
]}

* * *

# reported PI MCF7; entries follow
system: MCF7/FasR breast cancer cells; test: MTT cell viability, 72 h, dark or 458 nm irradiation; type: cell-based, human; conditions: GI50 non-irradiated / GI50 irradiated

{"columns": ["smilesData", "PI MCF7"],
 "data": [
  ["CC(C)[n+]1ccn2[c]1[Ir-3]13([c]4ccccc4-c4cccc[n+]41)([c]1ccccc1-c1cccc[n+]13)[c]1n(cc[n+]1C(C)C)C2.F[P-](F)(F)(F)(F)F", 4.3],
  ["CC(C)C[n+]1ccn2[c]1[Ir-3]13([c]4ccccc4-c4cccc[n+]41)([c]1ccccc1-c1cccc[n+]13)[c]1n(cc[n+]1CC(C)C)C2.F[P-](F)(F)(F)(F)F", 4.0],
  ["F[P-](F)(F)(F)(F)F.c1ccc(C[n+]2ccn3[c]2[Ir-3]24([c]5ccccc5-c5cccc[n+]52)([c]2ccccc2-c2cccc[n+]24)[c]2n(cc[n+]2Cc2ccccc2)C3)cc1", 4.1],
  ["CSc1ccc(-[n+]2ccn3[c]2[Ir-3]24([c]5ccccc5-c5cccc[n+]52)([c]2ccccc2-c2cccc[n+]24)[c]2n(cc[n+]2-c2ccc(SC)cc2)C3)cc1.F[P-](F)(F)(F)(F)F", 3.1]
]}
